Field: normalized growth. Provide a value for each of the compounds that follow.
Test: chemical genetic growth profiling, strain panel (AID 1159580);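 further: tested at 20 µM; growth read once vehicle control cultures reached saturation at 30 °C; 1 = growth at the plate median or of vehicle wells; lower values mean less growth of the strain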
Conditions: S. cerevisiae deletion strains, growth OD, locus YOL012C, strain htz1
Screen size: about 5,500 compounds; about 2,000 (36%) were called active. About 18% were inconclusive and are not listed. Some of the results follow.

Requested read-out: normalized growth. Entry: Cn1c(=O)[nH]c(=O)c2[nH]cnc21
1.01 (inactive)

Requested read-out: normalized growth. Entry: CC1=C2[C@](C)(C=CC1=O)C[C@H](O)[C@H]1[C@H](C)C(=O)O[C@]21C
0.937 (inactive)

Requested read-out: normalized growth. Entry: C[C@]12CCC3C(CC[C@H]4C[C@@H](Cl)CC[C@]34C)C1CCC2=O (stereo partly drawn)
0.88 (inactive)

Requested read-out: normalized growth. Entry: CCCCC(=O)O[C@H]1CCC2C3CCc4cc(O)ccc4C3CC[C@@]21C (stereo partly drawn)
1.24 (inactive)

Requested read-out: normalized growth. Entry: CC(=O)Oc1ccc2c(c1)CCC1C2CC[C@@]2(C)C1CC[C@@H]2OC(C)=O (stereo partly drawn)
1.06 (inactive)

Requested read-out: normalized growth. Entry: NCCS
1.32 (inactive)

Requested read-out: normalized growth. Entry: OCCN1CCN(CCCN2c3ccccc3Sc3ccc(Cl)cc32)CC1
0.889 (inactive)

Requested read-out: normalized growth. Entry: COc1cc2ccc(=O)oc2c(O)c1O
0.802 (inactive)

Requested read-out: normalized growth. Entry: C[C@]12CCC3C(CC[C@H]4CC(=O)CC[C@]34C)C1CCC2=O (stereo partly drawn)
1.71 (inactive)

Requested read-out: normalized growth. Entry: C=C(C)c1cc2cc(C(C)=O)c(O)cc2o1
0.842 (inactive)

Requested read-out: normalized growth. Entry: Cc1cc(O)c2c(c1O)C(=O)c1c(O)cc(C)c(O)c1C2=O
1.11 (inactive)

Requested read-out: normalized growth. Entry: CCCc1nc(C(C)(C)O)c(C(=O)OCc2oc(=O)oc2C)n1Cc1ccc(-c2ccccc2-c2nn[nH]n2)cc1
1.03 (inactive)

Requested read-out: normalized growth. Entry: c1ccc2c(c1)[nH]c1cnccc12
0.866 (inactive)

Requested read-out: normalized growth. Entry: CCOc1nc2cccc(C(=O)OC(C)OC(=O)OC3CCCCC3)c2n1Cc1ccc(-c2ccccc2-c2nn[nH]n2)cc1 (stereo not drawn)
0.976 (inactive)

Requested read-out: normalized growth. Entry: CNC(=O)CSP(=S)(OC)OC
1.12 (inactive)

Requested read-out: normalized growth. Entry: O=C1c2ccccc2C(=O)c2c1ccc(O)c2O
0.219 (inactive)

Requested read-out: normalized growth. Entry: CC(=O)N[C@@H](CC(=O)O)C(=O)O
0.941 (inactive)

Requested read-out: normalized growth. Entry: O=[N+]([O-])/N=C1/NCCN1Cc1ccc(Cl)cc1
0.909 (inactive)

Requested read-out: normalized growth. Entry: CCC(=O)O[C@H]1CCC2C3CCc4cc(O)ccc4C3CC[C@@]21C (stereo partly drawn)
1.25 (inactive)

Requested read-out: normalized growth. Entry: CCNc1nc(Cl)nc(NC(C)C)n1
1.05 (inactive)

Requested read-out: normalized growth. Entry: COc1ccc2c(c1)[nH]c1c(C)nccc12
1.03 (inactive)

Requested read-out: normalized growth. Entry: COP(=S)(OC)SCn1nnc2ccccc2c1=O
1.5 (inactive)

Requested read-out: normalized growth. Entry: CCCCC(=O)N(Cc1ccc(-c2ccccc2-c2nn[nH]n2)cc1)[C@H](C(=O)O)C(C)C
1.43 (inactive)

Requested read-out: normalized growth. Entry: C/C=C(\C)C(=O)OC1[C@@H]2C=C3C4CC(=O)O[C@@H](c5ccoc5)[C@]4(C)CCC3[C@@](C)(C2=O)[C@@H](C(O)C(=O)OC)C1(C)C (stereo partly drawn)
1.07 (inactive)

Requested read-out: normalized growth. Entry: COc1cc2ccc(=O)oc2c(OC)c1OC
1.05 (inactive)

Requested read-out: normalized growth. Entry: O=C1c2ccc(O)c(O)c2C(=O)c2c(O)ccc(O)c21
0.902 (inactive)

Requested read-out: normalized growth. Entry: COc1cc(OC)c2c(c1Cl)OC1(C2=O)C(O)=CC(=O)CC1C (stereo not drawn)
1.12 (inactive)

Requested read-out: normalized growth. Entry: COC(=O)C[C@H]1C(C)(C)[C@@H](OC(C)=O)[C@@H]2CC3C4CC(=O)O[C@@H](c5ccoc5)[C@]4(C)CCC3[C@@]1(C)C2=O (stereo partly drawn)
0.967 (inactive)

Requested read-out: normalized growth. Entry: CC(C)=CCOc1c2occc2cc2ccc(=O)oc12
0.448 (inactive)

Requested read-out: normalized growth. Entry: CCCC(=O)Nc1ncnc2c1ncn2C1O[C@@H]2COP(=O)(O)O[C@H]2[C@H]1OC(=O)CCC (stereo partly drawn)
0.919 (inactive)

Requested read-out: normalized growth. Entry: COc1cc2ccc(=O)oc2cc1O
0.802 (inactive)

Requested read-out: normalized growth. Entry: CC1(C)C[C@@H]2C(=O)CC[C@H]3O[C@]3(C)CC[C@H]21
1.57 (inactive)

Requested read-out: normalized growth. Entry: CC(C)=CCOc1cc2oc(=O)ccc2cc1O
0.93 (inactive)

Requested read-out: normalized growth. Entry: C[C@]12CCC3c4ccc(O)cc4CCC3C1CC[C@@H]2OC(=O)CCC1CCCC1 (stereo partly drawn)
1.23 (inactive)

Requested read-out: normalized growth. Entry: C[N+]1(C)C2CC[C@H]1CC(OC(=O)C(O)c1ccccc1)C2 (stereo partly drawn)
1.26 (inactive)

Requested read-out: normalized growth. Entry: C[C@]12CCC3C(CC[C@H]4C[C@@H](O)CC[C@]34C)C1CCC2=O (stereo partly drawn)
1.94 (inactive)

Requested read-out: normalized growth. Entry: CC(=O)OCC(=O)[C@@]1(O)CCC2C3CCC4=CC(=O)CC[C@]4(C)[C@@]3(F)[C@@H](O)C[C@@]21C (stereo partly drawn)
0.967 (inactive)

Requested read-out: normalized growth. Entry: CN1CCN(CCCN2c3ccccc3Sc3ccc(Cl)cc32)CC1
0.226 (inactive)

Where do the numbers come from? From PubChem BioAssay AID1159580.
